- System: MDA-MB-231 complex spheroids, growth inhibition
- protocolNotes: Anticancer human tumor MDA-MB-231 cell line growth inhibition [Asc];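 also: spheroids exposed to compounds for 7 days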
- measurementConditions: second compound 0.01 µM; first compound 0.01 µM; hits give low values
For each record, write down the corresponding viability, T/C.
# output: bare number, implied unit %

viability, T/C lookup needed for NC1CCC(NC2CC2c2ccccc2)CC1 (stereo not drawn) + CNC(C)C(=O)NC1CN(S(=O)(=O)c2cccc(S(=O)(=O)N3CCC4CCC(C(=O)NC(c5ccccc5)c5ccccc5)N4C(=O)C(NC(=O)C(C)NC)C3)c2)CCC2CCC(C(=O)NC(c3ccccc3)c3ccccc3)N2C1=O , thanks.
4.1

viability, T/C lookup needed for Cn1ncnc1[C@H]1c2n[nH]c(=O)c3cc(F)cc(c23)N[C@@H]1c1ccc(F)cc1 + CNC(C)C(=O)NC1CN(S(=O)(=O)c2cccc(S(=O)(=O)N3CCC4CCC(C(=O)NC(c5ccccc5)c5ccccc5)N4C(=O)C(NC(=O)C(C)NC)C3)c2)CCC2CCC(C(=O)NC(c3ccccc3)c3ccccc3)N2C1=O , thanks.
2.04

viability, T/C lookup needed for O=C(c1ccc(F)c(F)c1Nc1ccc(I)cc1F)N1CC(O)([C@@H]2CCCCN2)C1 + CNC(C)C(=O)NC1CN(S(=O)(=O)c2cccc(S(=O)(=O)N3CCC4CCC(C(=O)NC(c5ccccc5)c5ccccc5)N4C(=O)C(NC(=O)C(C)NC)C3)c2)CCC2CCC(C(=O)NC(c3ccccc3)c3ccccc3)N2C1=O , thanks.
1.82

---

- System: MDA-MB-231 complex spheroids, growth inhibition
- protocolNotes: Anticancer human tumor MDA-MB-231 cell line growth inhibition [Asc]; active = viability on the fitted dose curve at most 10% of control; inactive = the rest;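 also: spheroids exposed to compounds for 7 days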
- measurementConditions: second compound 3.16 µM; first compound 3.16 µM
- Text: Multicellular complex tumor spheroid response to apoptosis pathway targeting inhibitors Alrizomadlin, Pelcitoclax, and Dasminapant in combination with a variety of drugs and investigational agents in selected tumor cell lines […] Compounds. […] If the clinical Cmax for an agent had not been determined, the highest concentration tested was 10 microM. […]
# valid calls are t = active, f = inactive; nothing else

Test call for this compound, please: C=CC(=O)N1CCN(c2nc(=O)n(-c3c(C)ccnc3C(C)C)c3nc(-c4c(O)cccc4F)c(F)cc23)C(C)C1 (centres undefined) + Cc1c(S(C)(=O)=O)c(-c2cc(F)cc(N3CCN(c4ccc(NS(=O)(=O)c5ccc(NC(CCN6CCC(C(=O)OCCCP(=O)(O)O)CC6)CSc6ccccc6)c(S(=O)(=O)C(F)(F)F)c5)cc4)CC3)c2)c(-c2ccc(Cl)cc2)n1C(C)C
f

Test call for this compound, please: C#Cc1c(F)ccc2cc(O)cc(-c3ncc4c(N5CC6CCC(C5)N6)nc(OCC56CCCN5CC(F)C6)nc4c3F)c12 (centres undefined) + Cc1c(S(C)(=O)=O)c(-c2cc(F)cc(N3CCN(c4ccc(NS(=O)(=O)c5ccc(NC(CCN6CCC(C(=O)OCCCP(=O)(O)O)CC6)CSc6ccccc6)c(S(=O)(=O)C(F)(F)F)c5)cc4)CC3)c2)c(-c2ccc(Cl)cc2)n1C(C)C
f

Test call for this compound, please: C=C(F)C(=O)N1CCN(c2nc(OCC3CCCN3C)nc3c2CCN(c2cccc4cccc(Cl)c24)C3)CC1CC#N (centres undefined) + Cc1c(S(C)(=O)=O)c(-c2cc(F)cc(N3CCN(c4ccc(NS(=O)(=O)c5ccc(NC(CCN6CCC(C(=O)OCCCP(=O)(O)O)CC6)CSc6ccccc6)c(S(=O)(=O)C(F)(F)F)c5)cc4)CC3)c2)c(-c2ccc(Cl)cc2)n1C(C)C
t

Test call for this compound, please: O=C(c1cc(Cc2n[nH]c(=O)c3ccccc23)ccc1F)N1CCN(C(=O)C2CC2)CC1 + Cc1c(S(C)(=O)=O)c(-c2cc(F)cc(N3CCN(c4ccc(NS(=O)(=O)c5ccc(NC(CCN6CCC(C(=O)OCCCP(=O)(O)O)CC6)CSc6ccccc6)c(S(=O)(=O)C(F)(F)F)c5)cc4)CC3)c2)c(-c2ccc(Cl)cc2)n1C(C)C
f

---

- Tested on: MDA-MB-231 complex spheroids, growth inhibition
- protocolNotes: Anticancer human tumor MDA-MB-231 cell line growth inhibition [Asc];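 also: spheroids exposed to compounds for 7 days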
- measurementConditions: second compound 3 µM; first compound 10 µM; hits give low values
measureName: viability, T/C

viability, T/C lookup needed for C=C(F)C(=O)N1CCN(c2nc(OCC3CCCN3C)nc3c2CCN(c2cccc4cccc(Cl)c24)C3)CC1CC#N (centres undefined) + CCN1C(C(=O)NC23CCC(C(=O)O)(CC2)CC3)C(c2cccc(Cl)c2F)C2(C(=O)Nc3cc(Cl)ccc32)C12CCCCC2 , thanks.
0.24%

viability, T/C lookup needed for O=C(c1cc(Cc2n[nH]c(=O)c3ccccc23)ccc1F)N1CCN(C(=O)C2CC2)CC1 + CCN1C(C(=O)NC23CCC(C(=O)O)(CC2)CC3)C(c2cccc(Cl)c2F)C2(C(=O)Nc3cc(Cl)ccc32)C12CCCCC2 , thanks.
77.8%

viability, T/C lookup needed for C=CC(=O)N1CCN(c2nc(=O)n(-c3c(C)ccnc3C(C)C)c3nc(-c4c(O)cccc4F)c(F)cc23)C(C)C1 (centres undefined) + CCN1C(C(=O)NC23CCC(C(=O)O)(CC2)CC3)C(c2cccc(Cl)c2F)C2(C(=O)Nc3cc(Cl)ccc32)C12CCCCC2 , thanks.
112%

viability, T/C lookup needed for C#Cc1c(F)ccc2cc(O)cc(-c3ncc4c(N5CC6CCC(C5)N6)nc(OCC56CCCN5CC(F)C6)nc4c3F)c12 (centres undefined) + CCN1C(C(=O)NC23CCC(C(=O)O)(CC2)CC3)C(c2cccc(Cl)c2F)C2(C(=O)Nc3cc(Cl)ccc32)C12CCCCC2 , thanks.
36.4%

---

For each record, write down the corresponding viability, T/C.
- Tested on: MDA-MB-231 complex spheroids, growth inhibition
- protocolNotes: Anticancer human tumor MDA-MB-231 cell line growth inhibition [Asc];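 also: spheroids exposed to compounds for 7 days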
- measurementConditions: second compound 0.01 µM; first compound 0.01 µM; hits give low values
# output: bare number, implied unit %

viability, T/C lookup needed for CCN1CCN(Cc2ccc(Nc3ncc(F)c(-c4cc(F)c5nc(C)n(C(C)C)c5c4)n3)nc2)CC1 + CNC(C)C(=O)NC1CN(S(=O)(=O)c2cccc(S(=O)(=O)N3CCC4CCC(C(=O)NC(c5ccccc5)c5ccccc5)N4C(=O)C(NC(=O)C(C)NC)C3)c2)CCC2CCC(C(=O)NC(c3ccccc3)c3ccccc3)N2C1=O , thanks.
2.43

viability, T/C lookup needed for COc1c(OCCCN2CCOCC2)ccc2c3n(c(=NC(=O)c4cnc(N)nc4)nc12)CCN3 + CNC(C)C(=O)NC1CN(S(=O)(=O)c2cccc(S(=O)(=O)N3CCC4CCC(C(=O)NC(c5ccccc5)c5ccccc5)N4C(=O)C(NC(=O)C(C)NC)C3)c2)CCC2CCC(C(=O)NC(c3ccccc3)c3ccccc3)N2C1=O , thanks.
4.73

---

- Test system: MDA-MB-231 complex spheroids, growth inhibition
- protocolNotes: Anticancer human tumor MDA-MB-231 cell line growth inhibition [Asc];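 also: spheroids exposed to compounds for 7 days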
- measurementConditions: second compound 0.3 µM; first compound 0.1 µM; hits give low values
measureName: viability, T/C (%)
# output: bare number, implied unit %

viability, T/C lookup needed for O=C(c1ccc(F)c(F)c1Nc1ccc(I)cc1F)N1CC(O)([C@@H]2CCCCN2)C1 + CCN1C(C(=O)NC23CCC(C(=O)O)(CC2)CC3)C(c2cccc(Cl)c2F)C2(C(=O)Nc3cc(Cl)ccc32)C12CCCCC2 , thanks.
44.4

viability, T/C lookup needed for O=C(c1cc(Cc2n[nH]c(=O)c3ccccc23)ccc1F)N1CCN(C(=O)C2CC2)CC1 + CCN1C(C(=O)NC23CCC(C(=O)O)(CC2)CC3)C(c2cccc(Cl)c2F)C2(C(=O)Nc3cc(Cl)ccc32)C12CCCCC2 , thanks.
103

viability, T/C lookup needed for C=CC(=O)N1CCN(c2nc(=O)n(-c3c(C)ccnc3C(C)C)c3nc(-c4c(O)cccc4F)c(F)cc23)C(C)C1 (stereo not drawn) + CCN1C(C(=O)NC23CCC(C(=O)O)(CC2)CC3)C(c2cccc(Cl)c2F)C2(C(=O)Nc3cc(Cl)ccc32)C12CCCCC2 , thanks.
103

---

- Tested on: MDA-MB-231 complex spheroids, growth inhibition
- protocolNotes: Anticancer human tumor MDA-MB-231 cell line growth inhibition [Asc]; active = viability on the fitted dose curve at most 10% of control; inactive = the rest;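 also: spheroids exposed to compounds for 7 days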
- measurementConditions: second compound 0.0949 µM; first compound 1 µM
# valid calls are YES = active, NO = inactive; nothing else

Test call for this compound, please: CNC(C)C(=O)NC1CN(S(=O)(=O)c2cccc(S(=O)(=O)N3CCC4CCC(C(=O)NC(c5ccccc5)c5ccccc5)N4C(=O)C(NC(=O)C(C)NC)C3)c2)CCC2CCC(C(=O)NC(c3ccccc3)c3ccccc3)N2C1=O (centres undefined) + CCN1C(C(=O)NC23CCC(C(=O)O)(CC2)CC3)C(c2cccc(Cl)c2F)C2(C(=O)Nc3cc(Cl)ccc32)C12CCCCC2
YES

Test call for this compound, please: COc1c(OCCCN2CCOCC2)ccc2c3n(c(=NC(=O)c4cnc(N)nc4)nc12)CCN3 + CCN1C(C(=O)NC23CCC(C(=O)O)(CC2)CC3)C(c2cccc(Cl)c2F)C2(C(=O)Nc3cc(Cl)ccc32)C12CCCCC2
NO

Test call for this compound, please: CCN1CCN(Cc2ccc(Nc3ncc(F)c(-c4cc(F)c5nc(C)n(C(C)C)c5c4)n3)nc2)CC1 + CCN1C(C(=O)NC23CCC(C(=O)O)(CC2)CC3)C(c2cccc(Cl)c2F)C2(C(=O)Nc3cc(Cl)ccc32)C12CCCCC2
NO

Test call for this compound, please: C#Cc1c(F)ccc2cc(O)cc(-c3ncc4c(N5CC6CCC(C5)N6)nc(OCC56CCCN5CC(F)C6)nc4c3F)c12 (centres undefined) + CCN1C(C(=O)NC23CCC(C(=O)O)(CC2)CC3)C(c2cccc(Cl)c2F)C2(C(=O)Nc3cc(Cl)ccc32)C12CCCCC2
NO
